mLPS (6 h @ (30 mpk)) overview
# Test system: serum TNF
# Assay Procedure: Mouse model of LPS-induced TNF alpha production
# Assay type: in vivo, BALB/c female mice
# Condition Notes: percent inhibition of serum TNF, oral gavage 6 hours prior to LPS injection, mice

>  <Molecule>
Cn1cc(-c2ccc(F)cc2)c(-c2ccncc2)n1 [Example 10]

>  <mLPS (6 h @ (30 mpk))>
76%

$$$$
>  <Molecule>
Fc1ccc(-c2cn[nH]c2-c2ccncc2)cc1 [Example 9]

>  <mLPS (6 h @ (30 mpk))>
42%

$$$$
>  <Molecule>
CNS(=O)(=O)Nc1n[nH]c(-c2ccncc2)c1-c1ccc(F)cc1 [Example 4]

>  <mLPS (6 h @ (30 mpk))>
54%

$$$$
>  <Molecule>
Clc1ccc(-c2c[nH]nc2-c2ccncc2)cc1 [Example 15]

>  <mLPS (6 h @ (30 mpk))>
32%

$$$$

###

Entries and their melting point values follow.
Parameter: melting point

>  <Smiles Code>
Cc1n[nH]c(-c2ccncc2)c1-c1ccccc1

>  <Test Value>
164 to 165 °C

$$$$
>  <Smiles Code>
CS(=O)(=O)Nc1n[nH]c(-c2ccncc2)c1-c1ccc(F)cc1

>  <Test Value>
168 to 170 °C

$$$$
>  <Smiles Code>
Cn1nc(-c2ccncc2)c(-c2ccc(Cl)cc2)c1N

>  <Test Value>
257 to 258 °C

$$$$
>  <Smiles Code>
CNC(=O)Nc1n[nH]c(-c2ccncc2)c1-c1ccc(F)cc1

>  <Test Value>
212 to 213 °C

$$$$
>  <Smiles Code>
Nc1n[nH]c(-c2ccncc2)c1-c1ccc(F)cc1

>  <Test Value>
178 to 180 °C

$$$$
>  <Smiles Code>
CNS(=O)(=O)Nc1n[nH]c(-c2ccncc2)c1-c1ccc(F)cc1

>  <Test Value>
194 to 195 °C

$$$$

###

# Tested On: human p38 kinase alpha (Homo sapiens, UniProt Q16539)
# Construct: The coding region of the human p38a cDNA was obtained by PCR-amplification from RNA; made in house; host or cells: E. coli DH10B
# Sequence (Q16539 whole entry): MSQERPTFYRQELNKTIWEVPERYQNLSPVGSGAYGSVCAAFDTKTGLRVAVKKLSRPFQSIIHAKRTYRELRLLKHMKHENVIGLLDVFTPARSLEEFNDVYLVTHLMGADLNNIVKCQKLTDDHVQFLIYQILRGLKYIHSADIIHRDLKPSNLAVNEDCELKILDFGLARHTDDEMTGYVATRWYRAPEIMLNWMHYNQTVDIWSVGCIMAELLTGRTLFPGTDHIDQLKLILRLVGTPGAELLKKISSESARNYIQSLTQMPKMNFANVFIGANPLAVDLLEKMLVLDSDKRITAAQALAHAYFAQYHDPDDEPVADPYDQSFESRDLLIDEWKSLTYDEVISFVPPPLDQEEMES
# Assay Procedure: p38 kinase in vitro assay, EGFRP phosphorylation (33P-ATP)
# Format: biochemical
# Condition Notes: p38α in vitro results based on EGFRP assay procedure, read-out: p38α^2
pIC50: −log10 of the molar value.
Items are presented alongside their recorded pIC50.

>  <Compound>
Clc1ccc(-c2c[nH]nc2-c2ccncc2)cc1 [Example 15]

>  <pIC50>
6.12

$$$$
>  <Compound>
CS(=O)(=O)Nc1n[nH]c(-c2ccncc2)c1-c1ccc(F)cc1 [Example 3]

>  <pIC50>
5.59

$$$$
>  <Compound>
Nc1n[nH]c(-c2ccncc2)c1-c1ccc(F)cc1 [Example 2]

>  <pIC50>
5.21

$$$$
>  <Compound>
Cn1nc(-c2ccncc2)c(-c2ccc(Cl)cc2)c1N [Example 7]

>  <pIC50>
5.26

$$$$
>  <Compound>
Cc1n[nH]c(-c2ccncc2)c1-c1ccccc1 [Example 1]

>  <pIC50>
4.87

$$$$

###

# Tested On: human p38 kinase alpha (Homo sapiens)
# Construct: The coding region of the human p38a cDNA was obtained by PCR-amplification from RNA; made in house; host or cells: E. coli DH10B
# Assay Procedure: p38 kinase in vitro assay, PHAS-I phosphorylation (32P-ATP)
# Format: biochemical
# Condition Notes: p38α in vitro results based on PHAS-I assay procedure, read-out: P38α^1
Reported log10(IC50) values are given for each entry in this list.
Parameter: log10(IC50) (log10 of the value in µM)

>  <Smiles Code>
Clc1ccc(-c2c[nH]nc2-c2ccncc2)cc1

>  <Tested On>
human p38 kinase alpha (Homo sapiens)

>  <log10(IC50)>
0.77

$$$$
>  <Smiles Code>
Fc1ccc(-c2cn[nH]c2-c2ccncc2)cc1

>  <Tested On>
human p38 kinase alpha (Homo sapiens)

>  <log10(IC50)>
0.39

$$$$
>  <Smiles Code>
Cc1n[nH]c(-c2ccncc2)c1-c1ccccc1

>  <Tested On>
human p38 kinase alpha (Homo sapiens)

>  <log10(IC50)>
1.48

$$$$
>  <Smiles Code>
NC(=O)Nc1n[nH]c(-c2ccncc2)c1-c1ccc(F)cc1

>  <Tested On>
human p38 kinase alpha (Homo sapiens)

>  <log10(IC50)>
0.30

$$$$
>  <Smiles Code>
Cn1cc(-c2ccc(F)cc2)c(-c2ccncc2)n1

>  <Tested On>
human p38 kinase alpha (Homo sapiens)

>  <log10(IC50)>
0.86

$$$$

###

# Tested On: human p38 kinase alpha (Homo sapiens, UniProt Q16539)
# Construct: The coding region of the human p38a cDNA was obtained by PCR-amplification from RNA; made in house; host or cells: E. coli DH10B
# Assay Procedure: p38 kinase in vitro assay, EGFRP phosphorylation (33P-ATP)
# Assay type: biochemical
# Condition Notes: p38α in vitro results based on EGFRP assay procedure, read-out: p38α^2
pIC50: −log10 of the molar value.
Catalogue of pIC50 readings, one per entry.
Parameter: pIC50

>  <Smiles Code>
Cn1cc(-c2ccc(F)cc2)c(-c2ccncc2)n1

>  <Parameter>
pIC50

>  <Test Value>
6.40

$$$$
>  <Smiles Code>
CNS(=O)(=O)Nc1n[nH]c(-c2ccncc2)c1-c1ccc(F)cc1

>  <Parameter>
pIC50

>  <Test Value>
6.64

$$$$
>  <Smiles Code>
Fc1ccc(-c2cn[nH]c2-c2ccncc2)cc1

>  <Parameter>
pIC50

>  <Test Value>
5.46

$$$$
